Target: Poly [ADP-ribose] polymerase 1 (Bos taurus, UniProt P18493)
Sequence (P18493 whole entry): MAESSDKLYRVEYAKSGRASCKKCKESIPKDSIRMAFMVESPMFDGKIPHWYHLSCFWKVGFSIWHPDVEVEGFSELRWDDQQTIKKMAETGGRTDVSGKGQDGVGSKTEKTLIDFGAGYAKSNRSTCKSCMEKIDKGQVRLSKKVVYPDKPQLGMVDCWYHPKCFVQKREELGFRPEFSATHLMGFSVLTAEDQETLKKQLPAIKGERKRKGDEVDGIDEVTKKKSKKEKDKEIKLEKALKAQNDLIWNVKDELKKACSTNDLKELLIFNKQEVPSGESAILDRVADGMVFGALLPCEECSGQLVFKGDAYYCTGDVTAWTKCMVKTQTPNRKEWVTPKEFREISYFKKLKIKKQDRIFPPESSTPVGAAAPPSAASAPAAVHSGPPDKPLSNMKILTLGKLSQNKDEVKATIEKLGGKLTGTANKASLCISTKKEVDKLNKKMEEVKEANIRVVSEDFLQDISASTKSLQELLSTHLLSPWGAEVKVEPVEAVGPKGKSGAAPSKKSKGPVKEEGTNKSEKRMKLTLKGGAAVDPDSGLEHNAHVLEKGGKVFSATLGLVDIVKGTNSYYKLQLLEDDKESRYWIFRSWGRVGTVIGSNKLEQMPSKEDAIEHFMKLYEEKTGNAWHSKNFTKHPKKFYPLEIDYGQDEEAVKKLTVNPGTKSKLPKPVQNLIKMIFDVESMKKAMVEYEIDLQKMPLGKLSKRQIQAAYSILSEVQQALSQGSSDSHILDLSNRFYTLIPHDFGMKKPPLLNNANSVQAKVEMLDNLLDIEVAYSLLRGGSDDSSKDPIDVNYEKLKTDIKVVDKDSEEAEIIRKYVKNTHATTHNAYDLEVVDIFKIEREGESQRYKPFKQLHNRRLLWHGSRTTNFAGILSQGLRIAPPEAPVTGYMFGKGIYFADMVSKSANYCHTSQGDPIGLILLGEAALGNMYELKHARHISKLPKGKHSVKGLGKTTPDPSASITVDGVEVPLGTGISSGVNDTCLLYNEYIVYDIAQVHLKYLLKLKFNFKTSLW
pIC50: −log10 of the molar value.

{"Structure notation": "Cc1cccc2c(=O)[nH]c(CCCN3CC=C(c4ccc(F)cc4)CC3)nc12", "pIC50": 7.80}

* * *

Molecular target: Poly [ADP-ribose] polymerase 1 (Homo sapiens, UniProt P09874)
Sequence (P09874 whole entry): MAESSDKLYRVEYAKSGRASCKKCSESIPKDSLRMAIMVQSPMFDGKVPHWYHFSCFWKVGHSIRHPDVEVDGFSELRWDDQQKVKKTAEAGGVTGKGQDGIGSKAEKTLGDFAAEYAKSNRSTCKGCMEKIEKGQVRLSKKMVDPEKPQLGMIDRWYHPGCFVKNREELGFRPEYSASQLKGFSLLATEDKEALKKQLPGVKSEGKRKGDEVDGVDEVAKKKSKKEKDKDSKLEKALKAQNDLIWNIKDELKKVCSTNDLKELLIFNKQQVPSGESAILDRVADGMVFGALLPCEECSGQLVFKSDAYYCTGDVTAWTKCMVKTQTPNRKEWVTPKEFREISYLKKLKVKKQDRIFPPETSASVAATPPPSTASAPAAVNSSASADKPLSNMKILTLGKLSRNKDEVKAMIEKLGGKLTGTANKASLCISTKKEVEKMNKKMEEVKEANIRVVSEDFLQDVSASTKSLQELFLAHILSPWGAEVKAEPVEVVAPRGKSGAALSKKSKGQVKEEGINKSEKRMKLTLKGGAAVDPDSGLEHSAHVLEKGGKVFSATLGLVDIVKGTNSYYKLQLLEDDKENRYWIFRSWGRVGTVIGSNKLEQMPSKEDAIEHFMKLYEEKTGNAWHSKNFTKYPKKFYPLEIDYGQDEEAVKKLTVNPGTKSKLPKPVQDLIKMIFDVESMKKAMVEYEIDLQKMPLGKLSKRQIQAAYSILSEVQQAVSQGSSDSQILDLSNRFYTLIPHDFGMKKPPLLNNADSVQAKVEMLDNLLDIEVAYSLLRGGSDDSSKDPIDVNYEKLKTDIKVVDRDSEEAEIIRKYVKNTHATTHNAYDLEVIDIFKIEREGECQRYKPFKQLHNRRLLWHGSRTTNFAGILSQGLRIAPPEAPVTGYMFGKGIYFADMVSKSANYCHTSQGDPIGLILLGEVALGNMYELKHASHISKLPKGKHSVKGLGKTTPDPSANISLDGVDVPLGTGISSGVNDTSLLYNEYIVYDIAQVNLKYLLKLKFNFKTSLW
Assay: Inhibition of human PARP-1

{"Structure notation": "NC(=O)c1ccc(I)c([N+](=O)[O-])c1", "IC50 [µM]": 100}

* * *

Molecular target: Poly [ADP-ribose] polymerase 1 (Homo sapiens, UniProt P09874)
Experiment: Inhibition of human PARP-1 using histone as substrate incubated for 16 hrs by ELISA assay

{"Structure notation": "CC(C)(C)[Si](C)(C)OCCCN1CCN(C(=O)c2cc(Cn3c(=O)[nH]c(=O)c4ccccc43)ccc2F)CC1=O", "IC50 / nM": 1.29}

Source: ChEMBL document CHEMBL5252527
